Some compounds, each annotated with its measured IC50.
- test-target: Leukotriene A-4 hydrolase (Homo sapiens)
- Sequence (P09960 whole entry): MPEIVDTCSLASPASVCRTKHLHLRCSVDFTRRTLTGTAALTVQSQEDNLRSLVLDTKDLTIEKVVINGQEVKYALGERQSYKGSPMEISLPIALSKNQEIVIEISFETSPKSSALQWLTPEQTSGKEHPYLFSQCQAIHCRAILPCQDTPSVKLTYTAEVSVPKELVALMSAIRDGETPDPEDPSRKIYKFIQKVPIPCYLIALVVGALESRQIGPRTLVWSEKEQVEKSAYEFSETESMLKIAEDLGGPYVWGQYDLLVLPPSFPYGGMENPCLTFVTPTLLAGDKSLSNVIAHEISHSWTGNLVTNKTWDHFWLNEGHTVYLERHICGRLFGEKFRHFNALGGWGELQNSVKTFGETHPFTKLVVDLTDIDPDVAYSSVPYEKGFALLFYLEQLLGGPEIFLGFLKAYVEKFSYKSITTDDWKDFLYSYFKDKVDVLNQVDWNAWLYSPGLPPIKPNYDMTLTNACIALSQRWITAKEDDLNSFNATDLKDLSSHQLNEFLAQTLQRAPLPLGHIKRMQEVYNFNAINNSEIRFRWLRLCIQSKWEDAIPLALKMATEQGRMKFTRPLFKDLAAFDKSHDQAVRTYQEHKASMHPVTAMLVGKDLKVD
- method-description: Inhibition of recombinant human full length C-terminal His6-tagged LTA4H expressed in Escherichia coli BL21 DE3 cells assessed as reduction in amino-4-methylcoumarin formation using L-arginine-7-amino-4-methylcoumarin as substrate incubated for 30 mins followed by substrate addition and measured for 30 mins by fluorescence based assay
Your reply should be a number followed by the unit it is expressed in.

>>> experimental_result("O=C(CCc1ccc(OCc2ccccc2)cc1)NCC1CCN(CCCc2ccccc2)CC1")
"18.3 µM"

Now for a further compound.
-- ask Which measured IC50 value corresponds to O=C(CCc1ccc(OCc2ccccc2)cc1)NCCC1CCN(Cc2ccccc2)C1 (configuration not stated) ?
-- reply 3.2 µM

###

- test-target: Bifunctional epoxide hydrolase 2 (Homo sapiens)
- Sequence (P34913 whole entry, the tested form may be a part): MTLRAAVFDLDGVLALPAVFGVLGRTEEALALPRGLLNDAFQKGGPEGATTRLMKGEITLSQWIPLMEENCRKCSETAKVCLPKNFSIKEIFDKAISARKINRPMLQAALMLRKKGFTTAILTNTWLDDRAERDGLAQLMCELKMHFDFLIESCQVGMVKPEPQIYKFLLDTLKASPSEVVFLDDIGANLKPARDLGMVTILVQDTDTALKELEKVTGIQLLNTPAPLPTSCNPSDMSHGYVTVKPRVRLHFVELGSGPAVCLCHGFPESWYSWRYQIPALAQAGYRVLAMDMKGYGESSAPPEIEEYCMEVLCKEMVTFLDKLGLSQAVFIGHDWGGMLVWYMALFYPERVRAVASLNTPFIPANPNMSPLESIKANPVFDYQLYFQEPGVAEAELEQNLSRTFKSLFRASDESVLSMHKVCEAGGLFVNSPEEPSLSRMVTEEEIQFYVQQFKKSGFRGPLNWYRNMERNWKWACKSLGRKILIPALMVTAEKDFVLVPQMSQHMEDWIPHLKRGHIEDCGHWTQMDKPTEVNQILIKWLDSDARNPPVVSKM
- method-description: Inhibition of recombinant human full length sEH (1 to 555 residues) expressed in Escherichia coli BL21 DE3 cells assessed as reduction in 6-methoxynaphthaldehyde formation using PHOME as substrate incubated for 45 mins followed by substrate addition and measured for 45 mins by fluorescence based assay
Some molecules, each annotated with its measured pIC50.
Please report pIC50 as the negative decimal logarithm of the molar concentration, giving only the number.

The examples below pair each entry with its known result.
>>> experimental_result("O=C(CCc1ccc(OCc2ccccc2)cc1)Nc1ccc(CCN2CCOCC2)cc1")
5.89
>>> experimental_result("O=C(CCc1ccc(OCc2ccccc2)cc1)NCCC1CCN(Cc2ccccc2)C1 (configuration not stated)")
4.55
>>> experimental_result("O=C(CCc1ccc(OCc2ccccc2)cc1)Nc1ccc(OCCN2CCCCCC2)cc1")
4.80

-- ask Which measured pIC50 value corresponds to `CCOP(=O)(OCC)c1ccc(NC(=O)CCc2ccc(OCc3ccccc3)cc2)cc1` ?
-- reply 5.33

-- ask // same read-out, input: `O=C(CCc1ccc(OCc2ccccc2)cc1)NCC1CCN(Cc2cccs2)CC1`
-- reply 6.30

-- ask // same read-out, input: O=C(CCc1ccc(OCc2ccccc2)cc1)NCC1CCCN(CCc2ccccc2)C1 (configuration not stated)
-- reply 4.82

-- ask // same read-out, input: O=C(CCc1ccc(OCc2ccccc2)cc1)NCC1CCN(c2cccc(Br)c2)C1 (configuration not stated)
-- reply 5.00
